- System: NCI-H460 lung
- assay summary: NCI-60 one-dose screen, 48 h (100 = growth as untreated, 0 = no growth, -100 = all killed)
- test settings: 10 µM unless noted
The panel holds about 83,000 compounds, 20% with a hit somewhere; the sample as a whole holds those more often.
test readout: growth (%)
API: value field is a number in %; no unit string.

Examples with answers:
- compound: "c1ccc(CNc2ncnc3ccc(-c4cnc5[nH]ncc5c4)cc23)cc1"
  target or system: "NCI-H460 lung"
  meas value: 65.7
- compound: "CCC/C=C/C=C/C(=O)N[C@@H](Cc1cc(F)cc(F)c1)C(=O)N[C@@H]1C(=O)N2CCC[C@H]2C(=O)N2CCCC[C@H]2C(=O)N[C@@H](C)C(=O)N2C[C@H](C)C[C@H]2C(=O)O[C@H]1C"
  target or system: "NCI-H460 lung"
  meas value: 11.9
- compound: "Clc1ccc(Cc2nnc3sc(-c4cccnc4)nn23)cc1"
  target or system: "NCI-H460 lung"
  meas value: 103
- compound: "COc1ccc(C(=O)/C=C/c2ccc(OCc3ccc(C)cc3)c(OC)c2)cc1OC"
  target or system: "NCI-H460 lung"
  meas value: 60.1

Record request: growth value, item O=C(N/N=C/c1ccc[nH]1)c1[nH]c2ccc(Br)cc2c1-c1ccccc1
2.17

Need growth of COc1ccccc1C(=O)CSc1nc(Nc2ccc(S(N)(=O)=O)cc2)c2ccccc2n1 , thanks.
85.1

Returns the measured growth for the input compound. Input: CN1CCc2c(sc3ncnc(N/N=C/c4ccc(Cl)c(Cl)c4)c23)C1
0.478

For C#Cc1nc(C2=C(C)C(O)CC2)cs1 (centres undefined) , what is its reported growth?
113

Give its growth value. Item: O=C1[C@H]2Cc3c([nH]c4ccccc34)[C@@H](c3ccc(Br)cc3)N2C(=O)CN1C1CCN(Cc2ccccc2)CC1
30

Data provenance: PubChem BioAssay (NCI)
